Target: YchF (YchFE.coli) (Escherichia coli, UniProt P0ABU2)
Sequence (P0ABU2 1-363): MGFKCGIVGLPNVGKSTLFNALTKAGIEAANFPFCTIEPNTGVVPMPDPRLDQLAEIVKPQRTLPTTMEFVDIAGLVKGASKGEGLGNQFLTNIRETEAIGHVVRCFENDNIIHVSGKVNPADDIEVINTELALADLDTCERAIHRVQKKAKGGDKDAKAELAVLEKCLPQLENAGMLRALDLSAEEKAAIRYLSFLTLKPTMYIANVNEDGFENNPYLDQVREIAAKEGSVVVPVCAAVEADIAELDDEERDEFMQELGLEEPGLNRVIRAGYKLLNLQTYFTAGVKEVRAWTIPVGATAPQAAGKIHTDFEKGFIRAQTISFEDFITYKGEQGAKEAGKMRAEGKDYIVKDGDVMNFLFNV
Hi there, I'd appreciate the recorded Kd for every entry that follows.
Numbers only, in µM.

Known results for compounds:
{"columns": ["Compound", "Unit Abbreviation", "Kd"],
 "data": [
  ["Nc1nc2c(ncn2[C@@H]2O[C@H](COP(=O)(O)OP(=O)(O)O)[C@@H](O)[C@H]2O)c(=O)[nH]1 [GDP]", "µM", 151],
  ["Nc1ncnc2c1ncn2[C@@H]1O[C@H](COP(=O)(O)OP(=O)(O)O)[C@@H](O)[C@H]1O [ADP]", "µM", 14],
  ["Nc1ncnc2c1ncn2[C@@H]1O[C@H](COP(=O)(O)OP(=O)(O)NP(=O)(O)O)[C@@H](O)[C@H]1O [ADPNP]", "µM", 9]
]}

Pending compound:
-- ask Please give the documented Kd of Nc1nc2c(ncn2[C@@H]2O[C@H](COP(=O)(O)OP(=O)(O)OP(=O)(O)O)[C@@H](O)[C@H]2O)c(=O)[nH]1 [GTP]
-- reply 206
